# targetOfAssay: FAP (Homo sapiens, UniProt Q12884)
# Sequence (Q12884 1-760): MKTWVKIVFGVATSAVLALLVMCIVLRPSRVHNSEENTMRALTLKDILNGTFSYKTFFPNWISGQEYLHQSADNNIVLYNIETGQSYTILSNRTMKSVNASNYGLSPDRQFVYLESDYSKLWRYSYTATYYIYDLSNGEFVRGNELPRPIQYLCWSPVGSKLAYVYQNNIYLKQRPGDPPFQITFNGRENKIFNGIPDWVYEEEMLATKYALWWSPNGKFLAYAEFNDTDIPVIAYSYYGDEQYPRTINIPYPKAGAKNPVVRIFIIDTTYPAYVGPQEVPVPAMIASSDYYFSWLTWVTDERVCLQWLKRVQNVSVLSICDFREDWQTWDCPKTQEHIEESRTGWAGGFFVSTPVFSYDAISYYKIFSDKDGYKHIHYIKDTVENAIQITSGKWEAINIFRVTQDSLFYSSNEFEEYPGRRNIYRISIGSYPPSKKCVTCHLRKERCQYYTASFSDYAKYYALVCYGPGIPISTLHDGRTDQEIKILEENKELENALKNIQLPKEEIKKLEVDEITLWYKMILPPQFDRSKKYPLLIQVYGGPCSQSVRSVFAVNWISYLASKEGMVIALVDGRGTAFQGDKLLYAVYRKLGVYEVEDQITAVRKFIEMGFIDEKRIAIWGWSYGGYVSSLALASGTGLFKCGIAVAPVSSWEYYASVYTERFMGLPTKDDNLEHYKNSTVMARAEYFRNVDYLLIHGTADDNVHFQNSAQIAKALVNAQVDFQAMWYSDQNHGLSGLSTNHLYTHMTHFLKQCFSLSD
Label yes when IC50 < 60 µM; otherwise no.

smilesText | targetOfAssay | groupLabel
N#Cc1ccccc1Cn1c(N2CCC[C@@H](N)C2)nc2cc(C(=O)N3CCCC3)sc2c1=O | FAP (Homo sapiens, UniProt Q12884) | no
COC(=O)[C@H](Cc1ccc(O)cc1)NC(=O)c1cc2nc(N3CCC[C@@H](N)C3)n(Cc3ccccc3C#N)c(=O)c2s1 | FAP (Homo sapiens, UniProt Q12884) | yes
CC(C)NC(=O)c1csc2c(=O)n(Cc3ccccc3C#N)c(N3CCC[C@@H](N)C3)nc12 | FAP (Homo sapiens, UniProt Q12884) | yes
COC(=O)[C@H](Cc1ccccc1)NC(=O)c1cc2nc(N3CCC[C@@H](N)C3)n(Cc3ccccc3C#N)c(=O)c2s1 | FAP (Homo sapiens, UniProt Q12884) | no
COC(=O)[C@@H](NC(=O)c1cc2nc(N3CCC[C@@H](N)C3)n(Cc3ccccc3C#N)c(=O)c2s1)C(C)C | FAP (Homo sapiens, UniProt Q12884) | no

Ask: Strictly below 60 µM in IC50? `CCNC(=O)c1csc2c(=O)n(Cc3ccccc3C#N)c(N3CCC[C@@H](N)C3)nc12`
Reply: yes

Ask: Given the entry `CC(C)CCNC(=O)c1csc2c(=O)n(Cc3ccccc3C#N)c(N3CCC[C@@H](N)C3)nc12` , would its reported IC50 be below 60 µM?
Reply: no

Ask: Just wondering, is IC50 of `N#Cc1ccccc1Cn1c(N2CCC[C@@H](N)C2)nc2cc(C(=O)N3CCOCC3)sc2c1=O` below 60 µM?
Reply: no

Ask: API: query returns whether the molecule falls strictly under 60 µM in IC50. Query: `CNC(=O)c1csc2c(=O)n(Cc3ccccc3C#N)c(N3CCC[C@@H](N)C3)nc12`
Reply: yes

Ask: Would you kindly verify if IC50 of `N#Cc1ccccc1Cn1c(N2CCC[C@@H](N)C2)nc2cc(C(=O)N3CCCCC3)sc2c1=O` is strictly less than 60 µM?
Reply: yes

Ask: Here's an entry: `N#Cc1ccccc1Cn1c(N2CCC[C@@H](N)C2)nc2c(C(=O)NCC3COC3)csc2c1=O` . Is its IC50 below 60 µM?
Reply: yes

Ask: Does the reported IC50 of the following molecule sit strictly below 60 µM? `N#Cc1ccccc1Cn1c(N2CCC[C@@H](N)C2)nc2cc(C(=O)NCC3CC3)sc2c1=O`
Reply: no

Ask: # TODO verify IC50 < 60 µM strictly for this molecule: `N#Cc1ccccc1Cn1c(N2CCC[C@@H](N)C2)nc2cc(COCc3ccccc3)sc2c1=O`
Reply: no

Ask: For `COC(=O)[C@H](Cc1ccc(O)cc1)NC(=O)c1csc2c(=O)n(Cc3ccccc3C#N)c(N3CCC[C@@H](N)C3)nc12` , is the recorded IC50 below the cut-off of 60 µM?
Reply: yes

Ask: Could you please tell me whether IC50 recorded for `CC(C)CNC(=O)c1csc2c(=O)n(Cc3ccccc3C#N)c(N3CCC[C@@H](N)C3)nc12` is less than 60 µM?
Reply: yes

Ask: hey, is IC50 for `COC(=O)[C@@H](NC(=O)c1csc2c(=O)n(Cc3ccccc3C#N)c(N3CCC[C@@H](N)C3)nc12)C(C)C` lower than 60 µM or not?
Reply: yes

Ask: Given the entry `CC(C)NC(=O)c1cc2nc(N3CCC[C@@H](N)C3)n(Cc3ccccc3C#N)c(=O)c2s1` , would its reported IC50 be below 60 µM?
Reply: no

Ask: Answer whether the molecule `CNC(=O)c1cc2nc(N3CCC[C@@H](N)C3)n(Cc3ccccc3C#N)c(=O)c2s1` has IC50 strictly less than 60 µM
Reply: no

Ask: Hello, is IC50 of the following molecule strictly smaller than 60 µM? `N#Cc1ccccc1Cn1c(N2CCC[C@@H](N)C2)nc2cc(C(=O)NC3CC3)sc2c1=O`
Reply: no

Ask: IC50 under 60 µM? Item: `COC(=O)[C@H](Cc1ccccc1)NC(=O)c1csc2c(=O)n(Cc3ccccc3C#N)c(N3CCC[C@@H](N)C3)nc12`
Reply: yes

Ask: Is IC50 of `CCNC(=O)c1cc2nc(N3CCC[C@@H](N)C3)n(Cc3ccccc3C#N)c(=O)c2s1` strictly below 60 µM?
Reply: no

Ask: Identify whether the molecule `CN1CCN(C(=O)c2csc3c(=O)n(Cc4ccccc4C#N)c(N4CCC[C@@H](N)C4)nc23)CC1` records IC50 below 60 µM.
Reply: no
